The origin of these recorded values is patent US11555012B2.

Tested on: HepG2 cells
CONDITIONS: Homo sapiens, HepG2, read-out: ACLY HepG2 14C-Pyruvate Assay serum free IC50 FA (IC50) [μM]
ENDPOINT: IC50

// returns reported IC50 for input O=S(=O)(Nc1cc(-c2ccccc2)ccc1F)c1cc(Cl)cc(Br)c1O [I-23] 1 to 10 µM

Same lookup for COc1ccc(-c2ccc(F)cc2)cc1NS(=O)(=O)c1cc(Cl)cc(Cl)c1O [I-6] , please. > 10 µM

Same lookup for O=C(Nc1cc(-c2ccccc2)ccc1C(=O)O)c1cc(Cl)cc(Cl)c1 [I-260] , please. 1 to 10 µM

Same lookup for O=C(c1cc(Cl)c(O)c(S(=O)(=O)Nc2cc(-c3ccccc3)c(F)cc2F)c1)N1CCC1 [I-98] , please. > 10 µM

Same lookup for COC(=O)c1cc(Cl)c(O)c(S(=O)(=O)Nc2cc(-c3cccs3)ccc2F)c1 [I-60] , please. 1 to 10 µM

Same lookup for O=C(O)c1cc(F)c(-c2ccccc2)cc1NS(=O)(=O)c1cc(Cl)cc(Cl)c1 [I-287] , please. 1 to 10 µM

###

TARGET_ENTITY: ACL (Homo sapiens (Human))
Sequence (P53396 other isoform, or with tags, fused parts or gaps isoform P53396-2): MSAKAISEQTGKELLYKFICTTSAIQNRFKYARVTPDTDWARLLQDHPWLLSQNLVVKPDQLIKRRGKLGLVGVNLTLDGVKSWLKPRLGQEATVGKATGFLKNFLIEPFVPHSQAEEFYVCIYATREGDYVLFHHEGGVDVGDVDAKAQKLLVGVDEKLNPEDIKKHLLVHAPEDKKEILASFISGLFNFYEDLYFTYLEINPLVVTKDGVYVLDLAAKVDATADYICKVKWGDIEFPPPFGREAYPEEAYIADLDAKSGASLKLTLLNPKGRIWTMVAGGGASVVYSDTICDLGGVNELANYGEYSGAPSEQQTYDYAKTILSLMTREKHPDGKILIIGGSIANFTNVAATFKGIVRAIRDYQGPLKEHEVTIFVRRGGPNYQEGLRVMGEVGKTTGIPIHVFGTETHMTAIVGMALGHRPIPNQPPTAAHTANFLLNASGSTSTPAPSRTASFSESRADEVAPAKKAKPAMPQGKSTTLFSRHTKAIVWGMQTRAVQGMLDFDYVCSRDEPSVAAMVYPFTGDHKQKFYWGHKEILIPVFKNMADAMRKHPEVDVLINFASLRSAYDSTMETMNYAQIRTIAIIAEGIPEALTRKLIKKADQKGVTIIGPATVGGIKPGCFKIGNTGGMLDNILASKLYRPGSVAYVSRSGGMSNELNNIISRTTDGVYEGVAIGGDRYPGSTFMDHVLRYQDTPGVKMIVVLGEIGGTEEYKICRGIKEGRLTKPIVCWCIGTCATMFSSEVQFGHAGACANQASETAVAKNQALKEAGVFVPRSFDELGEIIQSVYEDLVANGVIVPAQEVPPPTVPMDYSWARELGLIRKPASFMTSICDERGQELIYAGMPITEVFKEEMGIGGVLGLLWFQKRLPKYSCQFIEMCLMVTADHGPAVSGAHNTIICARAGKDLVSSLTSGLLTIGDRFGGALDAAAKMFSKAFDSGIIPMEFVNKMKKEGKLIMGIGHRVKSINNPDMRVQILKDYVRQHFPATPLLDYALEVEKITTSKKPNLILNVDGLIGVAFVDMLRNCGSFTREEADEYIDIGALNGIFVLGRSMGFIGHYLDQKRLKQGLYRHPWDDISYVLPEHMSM
PROTOCOL_DESCRIPTION: ADP-Glo Assay
pIC50: −log10 of the molar value.
Assignment: determine reported pIC50 for the given molecules.

// returns reported pIC50 for input COc1c(Br)cc(C(=O)N2CCC2)cc1S(=O)(=O)Nc1cc(-c2ccccc2)ccc1F [I-154] 4.70 to 6.30

Same lookup for O=C(c1cc(Cl)c(O)c(SCc2cc(-c3ccccc3)c(F)cc2F)c1)N1CCCC1 [I-205] , please. 4.70 to 6.30

Same lookup for COC(=O)c1ccnc(NS(=O)(=O)c2cc(Cl)cc(Cl)c2O)c1 [I-525] , please. < 4.70

Same lookup for COc1ccc(-c2ccccc2)cc1NS(=O)(=O)c1cccc(-c2nnn(C)n2)c1 [I-436] , please. < 4.70

Same lookup for O=S(=O)(Nc1cc(-c2ccccc2)c(F)cc1F)c1cc(CN2CCC2)cc(Cl)c1O [I-272] , please. 4.70 to 6.30

Same lookup for COc1ccc(-c2ccccc2)cc1NS(=O)(=O)c1ccc(O)c(Cl)c1 [I-416] , please. < 4.70

Same lookup for O=C(O)c1sc(-c2ccc(Cl)cc2)cc1NS(=O)(=O)c1cc(Cl)cc(Cl)c1 [I-322] , please. 4.70 to 6.30

Same lookup for O=C(O)c1cc(Cl)c(O)c(S(=O)(=O)Nc2cc(-c3cc4ccccc4s3)c(F)cc2OC(F)(F)F)c1 [I-508] , please. 6.30 to 7.30

Same lookup for O=S(=O)(Nc1ccc(-c2ccccc2)cc1F)c1cccc2ncoc12 [I-393] , please. < 4.70

Same lookup for CO[C@@H]1CCN(C(=O)c2cc(Cl)c(O)c(S(=O)(=O)Nc3cc(-c4ccccc4)c(F)cc3F)c2)C1 [I-104] , please. 6.30 to 7.30

Same lookup for O=C(O)c1ccc(-c2ccccc2)cc1NS(=O)(=O)Cc1ccccc1 [I-257] , please. 4.70 to 6.30

Same lookup for COc1ccc(C(=O)N2CCC2)cc1S(=O)(=O)Nc1cc(-c2ccccc2)c(F)cc1F [I-384] , please. < 4.70

Same lookup for O=C(O)c1cc(Br)cc(S(=O)(=O)Nc2cc(-c3ccccc3)ccc2C(=O)O)c1 [I-303] , please. 4.70 to 6.30

Same lookup for O=C(c1c[nH]c(=O)c(S(=O)(=O)Nc2cc(-c3ccccc3)ccc2F)c1)N1CCC1 [I-369] , please. 4.70 to 6.30

Same lookup for COc1ccc(-c2ccccc2)cc1N(C)S(=O)(=O)c1cc(Cl)cc(Cl)c1O [I-17] , please. 4.70 to 6.30

Same lookup for O=C1COc2cc(S(=O)(=O)Nc3cc(-c4ccccc4)ccc3F)c(Cl)cc2N1 [I-255] , please. 4.70 to 6.30

Same lookup for Cc1cc(S(=O)(=O)Nc2cc(-c3ccccc3)ccc2C(=O)O)ccc1-n1cnnn1 [I-357] , please. 4.70 to 6.30

Same lookup for O=C(O)COc1c(Cl)cc(C(=O)N2CCC2)cc1S(=O)(=O)Nc1cc(-c2ccccc2)c(F)cc1F [I-199] , please. 4.70 to 6.30

Same lookup for O=S(=O)(Nc1cc(F)ccc1F)c1cc(Cl)cc(Cl)c1O [I-69] , please. 4.70 to 6.30

Same lookup for Cn1ccnc1-c1cc(Cl)c(O)c(S(=O)(=O)Nc2cc(-c3ccccc3)ccc2O)c1 [I-133] , please. 6.30 to 7.30

Same lookup for O=C(O)c1ccc(-c2ccccc2)cc1NS(=O)(=O)c1ccc(Cl)c(Cl)c1 [I-284] , please. 4.70 to 6.30

Same lookup for COC(=O)Cc1ccc(-c2ccccc2)cc1NS(=O)(=O)c1cc(Cl)cc(Cl)c1 [I-530] , please. < 4.70

Same lookup for N#Cc1ccc(F)c(S(=O)(=O)Nc2cc(-c3ccccc3)ccc2F)c1 [I-418] , please. < 4.70

Same lookup for CCC(=O)Nc1c(Cl)cc(Cl)cc1S(=O)(=O)Nc1cc(-c2ccccc2)ccc1OC [I-440] , please. < 4.70

Same lookup for O=C(O)c1ccc(-c2ccccc2)cc1NS(=O)(=O)Cc1cc(Cl)cc(Cl)c1 [I-305] , please. 4.70 to 6.30

Same lookup for O=C(Oc1c(Cl)cc(C(=O)N2CCC2)cc1S(=O)(=O)N(C(=O)C1CC1)c1cc(-c2ccccc2)c(F)cc1F)C1CC1 [I-217] , please. 4.70 to 6.30

Same lookup for COc1ccc(-c2ccccc2)cc1NS(=O)(=O)c1cc(C(N)=O)cc(Cl)c1O [I-55] , please. 6.30 to 7.30

Same lookup for O=C(c1cc(Cl)c(O)c(S(=O)(=O)Nc2cc(-c3ccccc3)ncc2F)c1)N1CCC1 [I-222] , please. 6.30 to 7.30

Same lookup for O=C(O)CCCOc1ccc(-c2ccccc2)cc1NS(=O)(=O)c1cc(Cl)cc(Cl)c1 [I-291] , please. 4.70 to 6.30

Same lookup for Cc1ccc(S(=O)(=O)Nc2cc(-c3ccccc3)ccc2F)c(C)c1OCC(=O)O [I-526] , please. < 4.70

Same lookup for O=C(O)c1ccc(-c2ccccc2)cc1NS(=O)(=O)c1cc(Cl)c[nH]c1=O [I-350] , please. 4.70 to 6.30

Same lookup for COc1ccc(-c2ccccc2)cc1NS(=O)(=O)c1ccc(-c2nn[nH]n2)cc1 [I-407] , please. < 4.70

Same lookup for O=S(=O)(Nc1cnn(-c2ccccc2)c1)c1cc(Cl)cc(Cl)c1O [I-170] , please. 4.70 to 6.30

Same lookup for O=C(O)c1ccc(NS(=O)(=O)c2cc(Cl)cc(Cl)c2O)cc1Cl [I-412] , please. < 4.70

Same lookup for O=C(NO)c1ccc(F)c(NS(=O)(=O)c2cc(Cl)cc(Cl)c2O)c1 [I-45] , please. 4.70 to 6.30
